# pEC50 annotations
Target: Cynomolgus monkey CTGF-Fc (cynomolgus monkey)
Sequence (P29279 other isoform, or with tags, fused parts or gaps limits assumed): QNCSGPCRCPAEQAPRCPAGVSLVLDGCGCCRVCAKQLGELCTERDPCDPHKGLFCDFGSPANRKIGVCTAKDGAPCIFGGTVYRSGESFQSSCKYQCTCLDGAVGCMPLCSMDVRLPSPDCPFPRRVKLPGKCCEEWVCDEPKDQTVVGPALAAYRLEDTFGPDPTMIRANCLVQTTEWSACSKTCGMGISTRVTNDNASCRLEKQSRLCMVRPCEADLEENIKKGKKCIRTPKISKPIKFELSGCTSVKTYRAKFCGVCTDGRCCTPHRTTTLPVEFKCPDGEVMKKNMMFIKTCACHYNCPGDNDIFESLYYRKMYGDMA
Assay: ELISA, cyno-CTGF-mFc captured by anti-mFc
Just the number, please; pEC50 means minus log10 of the concentration in mol/L.

# lookup: pEC50 of Hu147-33wk (antibody, human IgG1, kappa, V domains shown) VH: EVQLVESGGGLVQPGGSLRLSCAASGFSFNTYAMNWVRQAPGKGLEWVARIRTKSNNYATYYADSVKDRFTISRDDSESSLYLQMNSLKTEDTAVYYCVETGFAYWDQGTLVTVSS VL: EIVLTQSPATLSLSPGERATLSCSASSSVSYMHWFQQKPGQSPKLWIYSTSNLASGVPARFSGSGSGTDYTLTISSLEPEDFAVYYCQQRSSYPLTFGQGTKLEIKR 10.36

# lookup: pEC50 of Hu147-34wk (antibody, human IgG1, kappa, V domains shown) VH: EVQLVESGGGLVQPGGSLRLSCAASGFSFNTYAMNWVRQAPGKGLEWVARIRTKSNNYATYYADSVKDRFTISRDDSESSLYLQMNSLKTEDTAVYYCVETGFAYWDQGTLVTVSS VL: DIQMTQSPSSLSASVGDRVTITCSASSSVSYMHWFQQKPGKSPKLLIYSTSNLASGVPSRFSGSGSGTDYTLTISSLQPEDFATYYCQQRSSYPLTFGQGTKLEIKR 9.84

Let's switch to this binder now.
# lookup: pEC50 of Hu147-23wk (antibody, human IgG1, kappa, V domains shown) VH: EVQLVESGGGLVQPGGSLRLSCAASGFTFNTYAMNWVRQAPGKGLEWVARIRTKSNNYATYYADSVKDRFTISRDDSKNSLYLQMNSLKTEDTAVYYCVETGFAYWDQGTLVTVSS VL: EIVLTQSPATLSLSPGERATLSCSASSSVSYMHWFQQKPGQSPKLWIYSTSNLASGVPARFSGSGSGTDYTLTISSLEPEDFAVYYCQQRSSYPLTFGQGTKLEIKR 10.20

Source of measurements: patent US20230416352A1
